The values you see were collected from the supplement of paper PMC5908809.

Listing of entries alongside the reported percent inhibition of viability.
# Test system: YT (IL-2 2.5 ng/mL)
# PROTOCOL_DESCRIPTION: percent inhibition of viability; higher = more inhibition
# TEST_PARAMETERS: 72 h; 100 nM

COMPOUND | percent inhibition of viability, %
O=C(Nc1ccc2[nH]nc(-c3ccncc3)c2c1)[C@@H]1CCN(CC(=O)N2CCN(c3ccc(-c4ncccn4)cc3)CC2)C1 (max concentration tested 10000 nM) | -3.3
COCC1(CO)C(=O)C2CCN1CC2 (stereo not given) [APR-246] (max concentration tested 10000 nM) | 4.5
O=C(O)c1ccc(Nc2ncc3c(n2)-c2ccc(Cl)cc2C(c2c(F)cccc2F)=NC3)cc1 [MLN-8054] (max concentration tested 10000 nM) | 21
Cn1cnc2c(F)c(Nc3ccc(Br)cc3Cl)c(C(=O)NOCCO)cc21 [Selumetinib] (max concentration tested 10000 nM) | -5.27
Oc1ncc(N(CCCl)CCCl)c(O)n1 [Uracil mustard] (max concentration tested 10000 nM) | -1.58
COc1cc2ncnc(Nc3ccc(F)c(Cl)c3)c2cc1OCCCN1CCOCC1 [Gefitinib] (max concentration tested 10000 nM) | 4.23
COC(=O)C[C@](O)(CCCC(C)(C)O)C(=O)O[C@@H]1C(OC)=C[C@]23CCCN2CCc2cc4c(cc2[C@H]13)OCO4 [Omacetaxine] (max concentration tested 10000 nM) | 98.2
Cc1cc(Nc2cc(CN3CCOCC3)c3nc(C)c(Cc4ccc(Cl)cc4F)n3n2)n[nH]1 [Gandotinib] (max concentration tested 10000 nM) | 5.49
O=c1[nH]c(=O)n([C@H]2C[C@H](O)[C@@H](CO)O2)cc1F [Floxuridine] (max concentration tested 10000 nM) | 9.92
CCOC(=O)CCNc1cc(N2CCc3ccccc3CC2)nc(-c2ccccn2)n1 [GSK-J4] (max concentration tested 100000 nM) | -3.85

###

# Tested on: normal primary NK cells, pool 2 (3 donors) (IL-2 2.5 ng/mL)
# PROTOCOL_DESCRIPTION: percent inhibition of viability; higher = more inhibition
# TEST_PARAMETERS: 72 h; 1 nM
Listing of entries alongside the reported percent inhibition of viability.

MOLECULE | percent inhibition of viability, %
COc1cc2c(Nc3ccc(Cl)c(Cl)c3F)ncnc2cc1OC[C@@H]1C[C@@H]2CN(C)C[C@@H]2C1 [XL-647] (max concentration tested 1000 nM) | 6.47
CCCOc1ccn2c(C(C)=O)cc(-c3ccccc3S(C)(=O)=O)c2c1 [GSK2801] (max concentration tested 10000 nM) | -4.35
COC(=O)c1ccc2c(c1)NC(=O)/C2=C(\Nc1ccc(N(C)C(=O)CN2CCN(C)CC2)cc1)c1ccccc1 [Nintedanib] (max concentration tested 10000 nM) | -15.7
CN(c1ccccc1CNc1nc(Nc2ccc3c(c2)CC(=O)N3)ncc1C(F)(F)F)S(C)(=O)=O (max concentration tested 10000 nM) | -24.5
COc1cc2c(cc1O)CC[C@@H]1[C@@H]2CC[C@]2(C)[C@@H](O)CC[C@@H]12 [2-methoxyestradiol] (max concentration tested 10000 nM) | -5.21

###

# Test system: normal primary NK cells, pool 1 (3 donors) (IL-2 2.5 ng/mL)
# PROTOCOL_DESCRIPTION: drug sensitivity score (DSS) (DSS units); higher = more sensitive; extreme values may be limits of the assay
# TEST_PARAMETERS: 72 h

COMPOUND | drug sensitivity score
CC(=O)NCC(=O)N1[C@@H]2CC[C@H]1c1ccc(Nc3ncc(C(F)(F)F)c(NC4CCC4)n3)cc12 (max concentration tested 10000 nM) | 11
O=C(Nc1ccncc1)C(=O)c1cn(Cc2ccc(Cl)cc2)c2ccccc12 [Indibulin] (max concentration tested 10000 nM) | 0
O=C(/C=C/c1cccnc1)NCCCCC1CCN(C(=O)c2ccccc2)CC1 [Daporinad] (max concentration tested 1000 nM) | 39.6

###

Listing of entries alongside the reported percent inhibition of viability.
# System: KHYG-1 (IL-2 2.5 ng/mL)
# PROTOCOL_DESCRIPTION: percent inhibition of viability; higher = more inhibition
# TEST_PARAMETERS: 72 h; 10 nM

MOLECULE | READOUT_UNITS | percent inhibition of viability
Cc1cc(C(=O)NOCCO)c(Nc2ccc(I)cc2F)n(C)c1=O [AZD-8330] (max concentration tested 10000 nM) | % | 28.4
CO[C@H]1C[C@@H]2CC[C@@H](C)[C@@](O)(O2)C(=O)C(=O)N2CCCC[C@H]2C(=O)O[C@H]([C@H](C)C[C@@H]2CC[C@@H](OC(=O)C(C)(CO)CO)[C@H](OC)C2)CC(=O)[C@H](C)/C=C(\C)[C@@H](O)[C@@H](OC)C(=O)[C@H](C)C[C@H](C)/C=C/C=C/C=C/1C [Temsirolimus] (max concentration tested 100 nM) | % | 58.9
O=C(Nc1ccncc1)C(=O)c1cn(Cc2ccc(Cl)cc2)c2ccccc12 [Indibulin] (max concentration tested 10000 nM) | % | 2.71
OC[C@H]1O[C@@H](n2cnc3c2N=CNC[C@H]3O)C[C@@H]1O [Pentostatin] (max concentration tested 10000 nM) | % | -3.32

###

Listing of entries alongside the reported drug sensitivity score.
# Test system: NK-92 (IL-2 2.5 ng/mL)
# PROTOCOL_DESCRIPTION: drug sensitivity score (DSS) (DSS units); higher = more sensitive; extreme values may be limits of the assay
# TEST_PARAMETERS: 72 h

COMPOUND | drug sensitivity score
OC[C@H]1O[C@@H](n2cnc3c2N=CNC[C@H]3O)C[C@@H]1O [Pentostatin] (max concentration tested 10000 nM) | 0
COCC1(CO)C(=O)C2CCN1CC2 (stereo not drawn) [APR-246] (max concentration tested 10000 nM) | 0.65
COC(=O)c1ccc2c(c1)NC(=O)/C2=C(\Nc1ccc(N(C)C(=O)CN2CCN(C)CC2)cc1)c1ccccc1 [Nintedanib] (max concentration tested 10000 nM) | 11.3

###

# System: normal primary NK cells, pool 1 (3 donors) (IL-2 2.5 ng/mL)
# PROTOCOL_DESCRIPTION: percent inhibition of viability; higher = more inhibition
# TEST_PARAMETERS: 72 h; 100 nM
METRIC: percent inhibition of viability

COMPOUND | METRIC | MEASUREMENT
Cc1cnc(NC(=O)Nc2cc(Br)c(C)cc2OC[C@@H]2CNCCO2)cn1 [Rabusertib] (max concentration tested 1000 nM) | percent inhibition of viability | -18%
CCS(=O)(=O)c1cccc(-c2cc(C(=O)NC3CCN(C)CC3)c(C)c3[nH]c4ncc(C)cc4c23)c1 [TAK-901] (max concentration tested 1000 nM) | percent inhibition of viability | 1%
CN(C)C/C=C/C(=O)Nc1cc2c(Nc3ccc(F)c(Cl)c3)ncnc2cc1O[C@H]1CCOC1 [Afatinib] (max concentration tested 1000 nM) | percent inhibition of viability | -16.9%
O=C(/C=C/c1cccnc1)NCCCCC1CCN(C(=O)c2ccccc2)CC1 [Daporinad] (max concentration tested 1000 nM) | percent inhibition of viability | 98.2%
COc1ncc(-c2ccc3nccc(-c4ccnnc4)c3c2)cc1NS(=O)(=O)c1ccc(F)cc1F [Omipalisib] (max concentration tested 1000 nM) | percent inhibition of viability | 20.1%
COc1cc(Nc2ncc(F)c(Nc3ccc4c(n3)NC(=O)C(C)(C)O4)n2)cc(OC)c1OC [Tamatinib] (max concentration tested 10000 nM) | percent inhibition of viability | 7.45%

###

# Test system: normal primary NK cells, pool 1 (3 donors), resting (IL-2 0 ng/mL)
# PROTOCOL_DESCRIPTION: drug sensitivity score (DSS) (DSS units); higher = more sensitive; extreme values may be limits of the assay
# TEST_PARAMETERS: 72 h

COMPOUND | drug sensitivity score
Cn1cnc2c(F)c(Nc3ccc(Br)cc3Cl)c(C(=O)NOCCO)cc21 [Selumetinib] (max concentration tested 10000 nM) | 5.28
O=c1[nH]c(=O)n([C@H]2C[C@H](O)[C@@H](CO)O2)cc1F [Floxuridine] (max concentration tested 10000 nM) | 0
S=c1[nH]cnc2nc[nH]c12 [Mercaptopurine] (max concentration tested 10000 nM) | 0
COc1cc2c(NC3CCN(C(C)C)CC3)nc(C3CCCCC3)nc2cc1OCCCN1CCCC1 [UNC0638] (max concentration tested 10000 nM) | 7.28
O=C(O)c1ccc(O)c2ncccc12 [IOX-1] (max concentration tested 100000 nM) | 5.03
C[C@@H]1C=C2C(=O)O[C@@H]3CC[C@H](C1)[C@]23O [Galiellalactone] (max concentration tested 25000 nM) | 8.44
CCn1c(-c2nonc2N)nc2cnc(Oc3cccc(NC(=O)c4ccc(OCCN5CCOCC5)cc4)c3)cc21 (max concentration tested 10000 nM) | 4.87
N#CC(c1ccnc(OCc2ccc(CN3CCOCC3)cc2)n1)c1nc2ccccc2s1 (stereo not given) [Bentamapimod] (max concentration tested 10000 nM) | 0
CO[C@H]1C[C@@H]2CC[C@@H](C)[C@@](O)(O2)C(=O)C(=O)N2CCCC[C@H]2C(=O)O[C@H]([C@H](C)C[C@@H]2CC[C@@H](OC(=O)C(C)(CO)CO)[C@H](OC)C2)CC(=O)[C@H](C)/C=C(\C)[C@@H](O)[C@@H](OC)C(=O)[C@H](C)C[C@H](C)/C=C/C=C/C=C/1C [Temsirolimus] (max concentration tested 100 nM) | 0.07
Cc1[nH]c2ccccc2c1CCNCc1ccc(/C=C/C(=O)NO)cc1 [Panobinostat] (max concentration tested 1000 nM) | 24.6
COC(=O)C[C@](O)(CCCC(C)(C)O)C(=O)O[C@@H]1C(OC)=C[C@]23CCCN2CCc2cc4c(cc2[C@H]13)OCO4 [Omacetaxine] (max concentration tested 10000 nM) | 43.6
O=C(O)c1ccc(Nc2ncc3c(n2)-c2ccc(Cl)cc2C(c2c(F)cccc2F)=NC3)cc1 [MLN-8054] (max concentration tested 10000 nM) | 0.03
COc1cccc2c1C(=O)c1c(O)c3c(c(O)c1C2=O)C[C@@](O)(C(C)=O)C[C@@H]3O[C@H]1C[C@H](N)[C@H](O)[C@H](C)O1 [Daunorubicin] (max concentration tested 1000 nM) | 20.5
CC(=O)c1c(C)c2cnc(Nc3ccc(N4CCNCC4)cn3)nc2n(C2CCCC2)c1=O [Palbociclib] (max concentration tested 10000 nM) | 2.9
COc1cc2c(Nc3ccc(Cl)c(Cl)c3F)ncnc2cc1OC[C@@H]1C[C@@H]2CN(C)C[C@@H]2C1 [XL-647] (max concentration tested 1000 nM) | 5.88
